Test system: MS2 coat protein
Assay: apparent KD of MS2 coat protein; higher = weaker reporter binding
Settings: Eterna round: R107; input ligand: theophylline 2 mM
Catalogue of apparent KD of MS2 coat protein readings, one per entry.
Give the value, in units of nM, as a plain number.

INSERT INTO results (construct_sequence, tgt, reported_metric, unit_label, value) VALUES
  ('ACAUGAGGAUCACCCAUGUAUGGCGCGGAAGGAGCGUGAUUAAGCACAGGUAGGUCGCUGCGUUGAUCGAGCGUUAGCUCGAUAA [SSArg A #9]', 'MS2 coat protein', 'apparent KD of MS2 coat protein', 'nM', 22.4),
  ('GAUCGAAAUAACGUCUAGGAAAACUAGACGCGAGGACCGGUACGGCCGCCACUCGGGUGGCACAUGAGGAUCACCCAUGUAGAUC [#SwitchBubble 5 #GuTurnoff #MS2 3'']', 'MS2 coat protein', 'apparent KD of MS2 coat protein', 'nM', 100),
  ('AUUCAUGGAAACAUGACAUAGGGAUCCGGUCGAGGACCGGUACGGCCGCCACUCGUUUGGAGGCACAUGAGGAUCACCCAUGUUA [SS Tryp A #7]', 'MS2 coat protein', 'apparent KD of MS2 coat protein', 'nM', 101);

Give the reported apparent KD of MS2 coat protein for ACUGACUUUACGGCCGCCACUCAUUGGCACGUGUCAUGUCAACAUGAGGAUCACCCAUGUAUGAUGAGGACCGGGUAAGGGCUGC [theeternabot_exclusion_MS2_Trp_B_2] (system: MS2 coat protein).
11

Can you handle GGAUAGGACAGAAGGAGCGACAUGGCGACGAAAGUCGAAACUUCACAUGAGGAUCACCCAUGUCAGGUAGGUCGCUGUCCUAUCG [ArgXB 7 #MS2Gate #StaticStem] next?
55.7

Can you handle CGUCGAAACUGAAGGAGCGAGAUGACAACAUUGGGUCUAACAUGAGGAUCACCCAUGUAAUCUCAGGUAGGUCGCGGUGACAACA [Exclusion Arginine B GF 17] next?
59.6

Can you handle CAUUAAUUACGAAGGAGCGUCGAGAAUGGGUAAACAUGAGGAUCACCCAUGUGAAGGGAACGGCAGGUAGGUCGCGUAAUUAAUG [#22 Same State - Arginine B] next?
75.1

Can you handle GGACUAACCAGAAGGAGCGACGCAAGCAGAAACUGCAAUCCUCCGCACGAGGAUCACCCGUGUCAGGUAGGUCGCUGGUUAGUCG [ArgBX 28] next?
30.1
